test system: TE-4 (Esophageal Squamous Cell Carcinoma); assay: Bliss excess, mean over the matrix (fraction); higher = more synergy
result.type: Bliss excess
Write the number on its own, no unit after it.

Sample answers from the record:
molecule	subject.of.test	test.value
CC1(C)CCC(CN2CCN(c3ccc(C(=O)NS(=O)(=O)c4ccc(NCC5CCOCC5)c([N+](=O)[O-])c4)c(Oc4cnc5[nH]ccc5c4)c3)CC2)=C(c2ccc(Cl)cc2)C1 [Venetoclax] + C[C@@H](Nc1cc(F)cc(F)c1)c1cc(C(=O)N(C)C)cc2c(=O)cc(N3CCOCC3)oc12 [AZD8186] (first compound max 1 µM, 7x7, partner max 3 µM)	TE-4 (Esophageal Squamous Cell Carcinoma)	-0.0315
CN(C)CCCOc1ccc(-c2ccc3ncc4c(c3c2)n(C2CCOCC2)c(=O)n4C)cn1 [AZD0156] + O=C(c1cc(Cc2n[nH]c(=O)c3ccccc23)ccc1F)N1CCN(C(=O)C2CC2)CC1 [Olaparib] (first compound max 3 µM, partner max 3 µM)	TE-4 (Esophageal Squamous Cell Carcinoma)	0.0387

Task: For Cc1c2c(nn1C)CSCc1cc(n(C)n1)CSc1cc(c3ccccc3c1)OCCCc1c(C(=O)O)n(C)c3c-2c(Cl)ccc13 [AZD5991] + Cn1cnc2c(F)c(Nc3ccc(Br)cc3Cl)c(C(=O)NOCCO)cc21 [Selumetinib] (first compound max 1 µM, 7x7, partner max 3 µM) , what is its reported Bliss excess?
Result: 0.0329

---

tested on: HDLM-2 (Hodgkin's Lymphoma); assay: combination Emax (second highest fraction inhibited in the dose matrix, 72 h); higher = more inhibition; extreme values may be limits of the assay
Catalogue of combination Emax values
Just the number, please, no unit after it.

Worked examples follow.
molecule	subject.of.test	combination Emax
NC1(C(=O)N[C@@H](CCO)c2ccc(Cl)cc2)CCN(c2ncnc3[nH]ccc23)CC1 [Capivasertib] + CC(=O)c1c(C)c2cnc(Nc3ccc(N4CCNCC4)cn3)nc2n(C2CCCC2)c1=O [Palbociclib] (first compound max 10 µM, 7x7, partner max 10 µM)	HDLM-2 (Hodgkin's Lymphoma)	0.29
CN(CCO)CC[C@H](CSc1ccccc1)Nc1ccc(S(=O)(=O)NC(=O)c2ccc(N3CCC([C@@H](O)c4ccccc4-c4ccc(Cl)cc4)CC3)cc2)cc1S(=O)(=O)C(F)(F)F [AZD4320] + CC(=O)O[C@H]1C(=O)[C@@]2(C)[C@H]([C@H](OC(=O)c3ccccc3)[C@]3(O)C[C@H](OC(=O)[C@H](O)[C@@H](NC(=O)c4ccccc4)c4ccccc4)C(C)=C1C3(C)C)[C@]1(OC(C)=O)CO[C@@H]1C[C@@H]2O [Paclitaxel] (first compound max 1 µM, 7x7, partner max 3 µM)	HDLM-2 (Hodgkin's Lymphoma)	1
Cc1cc2ncnn2cc1Nc1ncc2c(n1)n(C1CCOCC1)c(=O)n2C [AZD7648] + C[C@@H]1COCCN1C2=NC(=NC(=C2)C3(CC3)[S@](=N)(=O)C)C4=C5C=CNC5=NC=C4 [AZD6738] (first compound max 10 µM, 7x7, partner max 10 µM)	HDLM-2 (Hodgkin's Lymphoma)	0.373
Cc1nc(Nc2ncc(C(=O)Nc3c(C)cccc3Cl)s2)cc(N2CCN(CCO)CC2)n1 [Dasatinib] + CC(=O)Nc1cccc(-n2c(=O)n(C3CC3)c(=O)c3c(Nc4ccc(I)cc4F)n(C)c(=O)c(C)c32)c1 [Trametinib] (first compound max 2 µM, 7x7, partner max 1 µM)	HDLM-2 (Hodgkin's Lymphoma)	0.12
C=CCn1c(=O)c2cnc(Nc3ccc(N4CCN(C)CC4)cc3)nc2n1-c1cccc(C(C)(C)O)n1 [AZD1775] + Nc1ccn([C@@H]2O[C@H](CO)[C@@H](O)C2(F)F)c(=O)n1 [Gemcitabine] (first compound max 1 µM, partner max 0.3 µM)	HDLM-2 (Hodgkin's Lymphoma)	0.763

Task: What value of combination Emax has been reported for the following molecule? Cc1c2c(nn1C)CSCc1cc(n(C)n1)CSc1cc(c3ccccc3c1)OCCCc1c(C(=O)O)n(C)c3c-2c(Cl)ccc13 [AZD5991] + C[C@@H]1COCCN1C2=NC(=NC(=C2)C3(CC3)[S@](=N)(=O)C)C4=C5C=CNC5=NC=C4 [AZD6738] (first compound max 1 µM, 7x7, partner max 10 µM)
Result: 0.992

Task: Also need COc1cccc(OCCCN)c1-c1cc(Nc2cnc(C#N)cn2)n[nH]1 [Prexasertib] + Cc1cc2ncnn2cc1Nc1ncc2c(n1)n(C1CCOCC1)c(=O)n2C [AZD7648] (first compound max 1 µM, 7x7, partner max 10 µM) , thanks.
Result: 0.583

---

tested on: NCI-H2795 (Mesothelioma); assay: Bliss excess, mean over the matrix (fraction); higher = more synergy
Overview of recorded Bliss excess for various compounds
// print number alone

compound	subject.of.test	Bliss excess
O=C(c1cc(Cc2n[nH]c(=O)c3ccccc23)ccc1F)N1CCN(C(=O)C2CC2)CC1 [Olaparib] + CN(CC[C@H](CSC1=CC=CC=C1)NC2=C(C=C(C=C2)S(=O)(=O)NC(=O)C3=CC=C(C=C3)N4CCC(CC4)[C@H](C5=CC=CC=C5C6=CC=C(C=C6)Cl)O)S(=O)(=O)C(F)(F)F)CCO [AZD4320] (first compound max 10 µM, 7x7, partner max 1 µM)	NCI-H2795 (Mesothelioma)	-0.0086

Now let's try a different one.
Task: Observed Bliss excess on NCI-H2795 (Mesothelioma) for CC(=O)Nc1cccc(-n2c(=O)n(C3CC3)c(=O)c3c(Nc4ccc(I)cc4F)n(C)c(=O)c(C)c32)c1 [Trametinib] + Cc1nc(-c2cn3c(n2)-c2ccc(-c4cnn(C(C)(C)C(N)=O)c4)cc2OCC3)n(C(C)C)n1 [Taselisib] (first compound max 1 µM, 7x7, partner max 10 µM) , please.
Result: 0.0749

---

test system: NCI-H2795 (Mesothelioma); assay: combination Emax (second highest fraction inhibited in the dose matrix, 72 h); higher = more inhibition; extreme values may be limits of the assay
Output: class label from combination Emax. Mapping: bin 0: < 0.6; bin 1: ≥ 0.6 and < 0.8; bin 2: ≥ 0.8

molecule	label.class
C[C@@H](Oc1cc(-c2cnn(C3CCNCC3)c2)cnc1N)c1c(Cl)ccc(F)c1Cl [Crizotinib] + Cn1cnc2c(F)c(Nc3ccc(Br)cc3Cl)c(C(=O)NOCCO)cc21 [Selumetinib] (first compound max 10 µM, 7x7, partner max 10 µM)	bin 2

Task: Form: Item = Cn1cnc2c(F)c(Nc3ccc(Br)cc3Cl)c(C(=O)NOCCO)cc21 [Selumetinib] + CC(C)n1c(=O)n(C)c2cnc3cc(F)c(-c4ccc(OCCCN5CCCCC5)nc4)cc3c21 [AZD1390] (first compound max 10 µM, 7x7, partner max 0.3 µM) ; Class = ?
Result: bin 2

Task: Cc1cc2ncnn2cc1Nc1ncc2c(n1)n(C1CCOCC1)c(=O)n2C [AZD7648] + CN(C)CCCOc1ccc(-c2ccc3ncc4c(c3c2)n(C2CCOCC2)c(=O)n4C)cn1 [AZD0156] (first compound max 10 µM, 7x7, partner max 1 µM) , same question.
Result: bin 0

Task: Another molecule to check: COc1cccc(OCCCN)c1-c1cc(Nc2cnc(C#N)cn2)n[nH]1 [Prexasertib] + C[C@@H]1COCCN1C2=NC(=NC(=C2)C3(CC3)[S@](=N)(=O)C)C4=C5C=CNC5=NC=C4 [AZD6738] (first compound max 1 µM, 7x7, partner max 10 µM)
Result: bin 1

---

test system: UMC-11 (Other Solid Carcinomas); test: Bliss excess, mean over the matrix (fraction); higher = more synergy
result.type: Bliss excess
API note: the answer field is a bare number with no unit suffix.

compound	test.value
CCN(CCO)CCCOc1ccc2c(Nc3cc(CC(=O)Nc4cccc(F)c4)[nH]n3)ncnc2c1 [AZD2811] + O=C(c1cc(Cc2n[nH]c(=O)c3ccccc23)ccc1F)N1CCN(C(=O)C2CC2)CC1 [Olaparib] (first compound max 1 µM, 7x7, partner max 10 µM)	-0.0715

// moving on: another record for Bliss excess
Task: What reported Bliss excess corresponds to Cc1c2c(nn1C)CSCc1cc(n(C)n1)CSc1cc(c3ccccc3c1)OCCCc1c(C(=O)O)n(C)c3c-2c(Cl)ccc13 [AZD5991] + C1CN(CCC1(C(=O)N[C@@H](CCO)C2=CC=C(C=C2)Cl)N)C3=NC=NC4=C3C=CN4 [Capivasertib] (first compound max 1 µM, 7x7, partner max 3 µM) on UMC-11 (Other Solid Carcinomas)?
Result: 0.0253

---

system: HARA (Squamous Cell Lung Carcinoma); assay: Bliss excess, mean over the matrix (fraction); higher = more synergy
Item-by-item account of Bliss excess
Give only the figure.

compound	Bliss excess
NC1(C(=O)N[C@@H](CCO)c2ccc(Cl)cc2)CCN(c2ncnc3[nH]ccc23)CC1 [Capivasertib] + COc1nnc2ccc(N3CCC(c4ccc(OCCN5CCN(C)C(=O)[C@H]5C)cc4)CC3)nn12 [AZD5153] (first compound max 10 µM, 7x7, partner max 1 µM)	-0.0019

Now look at this entry.
Task: Recorded Bliss excess for Cc1c2c(nn1C)CSCc1cc(n(C)n1)CSc1cc(c3ccccc3c1)OCCCc1c(C(=O)O)n(C)c3c-2c(Cl)ccc13 [AZD5991] + CC1(C)CCC(CN2CCN(c3ccc(C(=O)NS(=O)(=O)c4ccc(NCC5CCOCC5)c([N+](=O)[O-])c4)c(Oc4cnc5[nH]ccc5c4)c3)CC2)=C(c2ccc(Cl)cc2)C1 [Venetoclax] (first compound max 1 µM, 7x7, partner max 1 µM) , please?
Result: -0.0091
